Listed here: items and their measured growth inhibition.
experiment: NCI Yeast Anticancer Drug Screen. Data for the sgs1 mgt1 strain (AID 161);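 note: 0% = growth of cultures given vehicle only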; conditions: S. cerevisiae sgs1 mgt1 strain, at 5.0 µM (retest, dose inferred, filed as 0.5), active compounds read high
Compounds without any hit were thinned out: in the full panel of roughly 79,000, 15% have a hit.

{"columns": ["Molecule", "growth inhibition, %"],
 "data": [
  ["Oc1ccc(Cc2nccc3cc(O)c(O)cc23)cc1O", -1],
  ["CCc1nc2ccc(N=Nc3c(O)ccc4ccccc34)cc2[nH]1", -4],
  ["O=c1[nH]cc(F)c(=O)[nH]1", 53],
  ["O=C(O)NCC1CCCCC1 (tested in a mixture with another compound)", -2],
  ["CCCC(=O)OC(OC(=O)CCC)c1ccc([N+](=O)[O-])o1", 14],
  ["CCOc1ccccc1N1C(=O)CC(Sc2ccccc2N)C1=O (configuration not stated)", -5],
  ["Cc1cnccc1N=Nc1ccc(N(C)C)cc1", -23],
  ["O=C(c1c(F)c(F)c(F)c(F)c1F)c1c(F)c(F)c(F)c(F)c1F", 15],
  ["CCCCCCCCCCCCOC1C(COCCN2CCCC2)OC2OC(C)(C)OC21 (configuration not stated)", 19],
  ["N=c1oc2ccccc2cc1-c1nc2ccccc2[nH]1", 13],
  ["Oc1ccc(Br)cc1C=Nc1cccc(C(F)(F)F)c1", 1],
  ["CCOC(=O)/C=C1\\CCCn2c1ncc(C(=O)OCC)c2=O", 4]
]}

====

assay: NCI Yeast Anticancer Drug Screen. Data for the rad50EPP+ strain (AID 151);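 note: 0% = growth of vehicle-treated control cultures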; conditions: S. cerevisiae rad50 mutant strain, at 33.0 µM, active compounds read high
This is part of a sample that, as a whole, favours compounds with a hit. Of some 79,000 tested, about 15% had one in any assay.
# label = YES if growth inhibition >= 70% else NO

{"columns": ["Compound", "Discrete Label"],
 "data": [
  ["CN(C)CCn1c2ccccc2c2nc3cc4ccccc4cc3nc21", "YES"],
  ["O=C1c2ccc(O)cc2C(=O)c2c(O)ccc(O)c21", "YES"],
  ["CC(C)(C)[Si](C)(C)OCC1OC(n2cnc3c(N)ncnc32)C2OC(=S)OC12 (stereo unspecified)", "NO"],
  ["C=Cc1c(C)c(O)cc2c1-c1ccc(O)c(C)c1CC2", "NO"],
  ["CCCCOc1ccc(Nc2c3ccccc3nc3ccccc23)cc1", "YES"],
  ["BrC/C=C/C[P+](c1ccccc1)(c1ccccc1)c1ccccc1", "NO"],
  ["COc1ccc2cc(CN3CCC(C4CCN(Cc5ccc6cc(OC)ccc6c5)CC4)CC3)ccc2c1", "NO"],
  ["CN(C)CCC(=O)c1c[nH]c2ccccc12", "NO"],
  ["N=c1oc2ccccc2cc1-c1nc2ccccc2[nH]1", "YES"],
  ["Oc1ccc(Cc2nccc3cc(O)c(O)cc23)cc1O", "NO"]
]}

====

assay: NCI Yeast Anticancer Drug Screen. Data for the rad50 strain (AID 155);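 note: 0% = growth of vehicle-only cultures of the same strain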; settings: S. cerevisiae rad50 strain growth inhibition; at 3.7 µM; active compounds read high
About 79,000 compounds went through this panel and 15% of them were active in at least one assay; those are over-represented in the sample as a whole.
# label = 1 if growth inhibition >= 20% else -1

{"columns": ["Smiles Code", "Discrete Label"],
 "data": [
  ["CN(C)CCNC(=O)c1cccc2nc3c(ccc4ccccc43)nc12", 1],
  ["Cc1ccc2nc(N/N=C/c3ccc(C)s3)cc(C)c2c1", -1],
  ["CC(=O)CC[N+](C)(C)C", -1],
  ["CCCCOc1ccc(Nc2c3ccccc3nc3ccccc23)cc1", 1],
  ["CCOC(=O)/C(O)=C(/C=N/C(=S)Nc1c(CC)cccc1CC)C(=O)OCC", -1],
  ["Nc1ccc2ncc(Nc3ccc(Cl)c(Cl)c3)nc2c1", -1]
]}
